biological target: recombinant human aromatase (CYP19) (Homo sapiens, UniProt P11511); assay: Aromatase inhibition assay (Gentest kit, CYP19 with DBF fluorometric substrate); details: Experimental aromatase inhibitory activity (pIC50), -log IC50 of the experimental IC50 values
Sequence (P11511 whole entry): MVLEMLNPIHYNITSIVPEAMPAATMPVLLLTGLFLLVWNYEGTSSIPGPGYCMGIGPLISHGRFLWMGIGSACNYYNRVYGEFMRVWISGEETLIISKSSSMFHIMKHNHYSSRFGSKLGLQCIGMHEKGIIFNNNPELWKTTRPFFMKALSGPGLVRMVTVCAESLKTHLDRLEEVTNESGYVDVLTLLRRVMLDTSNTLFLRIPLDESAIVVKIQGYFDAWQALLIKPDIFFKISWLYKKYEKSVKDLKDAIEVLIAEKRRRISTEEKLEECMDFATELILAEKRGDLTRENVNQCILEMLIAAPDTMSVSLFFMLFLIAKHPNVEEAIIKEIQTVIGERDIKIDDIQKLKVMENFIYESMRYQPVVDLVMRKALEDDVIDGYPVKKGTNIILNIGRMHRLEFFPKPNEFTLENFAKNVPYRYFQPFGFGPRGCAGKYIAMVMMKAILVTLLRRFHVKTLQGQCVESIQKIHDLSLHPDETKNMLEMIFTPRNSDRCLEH
measure.name: IC50 (µM)

O=C1C(Cl)=C(NCCc2ccccc2)C(=O)c2ccccc21 = 3.3
CC(=O)c1cccc(NC2=C(Cl)C(=O)c3ccccc3C2=O)c1 = 3.1
CN(C1=C(Cl)C(=O)c2ccccc2C1=O)c1ccccc1 = 0.5
O=C1C(Cl)=C(Cl)C(=O)c2ccccc21 = 0.5
CC(=O)c1ccc(NC2=C(Cl)C(=O)c3ccccc3C2=O)cc1 = 5.3

(A) O=C1C(Cl)=C(Nc2cccc3cccnc23)C(=O)c2ccccc21
(B) O=C1C(Cl)=C(Nc2ccc(Nc3ccccc3)cc2)C(=O)c2ccccc21
(C) CCCCNC1=C(Cl)C(=O)c2ccccc2C1=O
(D) O=C(O)c1ccccc1NC1=C(Cl)C(=O)c2ccccc2C1=O
Input line: Please order the records by their reported IC50, lowest number first. Order the labels as requested and list them.
Output line: B, A, C, D

====

biological target: aromatase; experiment: QSAR (MLR) prediction of aromatase inhibitory activity; settings: predicted pIC50 versus experimental pIC50 0.301 of compound 1
measure.name: pIC50 fold greater than parent compound 1 (fold)

O=C1C(Br)=C(Br)C(=O)c2ccccc21 [Compound 1a] = 1.83

(1) CCN(C1=C(Cl)C(=O)c2ccccc2C1=O)c1ccccc1 [Compound 4a]
(2) O=C1C(F)=C(F)C(=O)c2ccccc21 [Compound 1c]
Input line: Which record shows the lower pIC50 fold greater than parent compound 1: the first, 1 , or the second, 2 ? Please indicate the selected item by its label.
Output line: 1
(1: 1.08 fold, 2: 2.04 fold)

====

biological target: recombinant human aromatase (CYP19) (Homo sapiens, UniProt P11511); assay: Aromatase inhibition assay (Gentest kit, CYP19 with DBF fluorometric substrate); details: Aromatase inhibitory activity IC50, Inactive = % inhibition ≤ 50 % at 12.5 µM
measure.name: IC50 (µM)

Sample records with IC50:
CC(=O)c1cccc(NC2=C(Cl)C(=O)c3ccccc3C2=O)c1 [Compound 6] = 3.1
O=C1C(Cl)=C(Nc2cccc3cccnc23)C(=O)c2ccccc21 [Compound 9] = 4.7
O=C(O)c1ccccc1NC1=C(Cl)C(=O)c2ccccc2C1=O [Compound 5] = 18

(a) CC(=O)c1ccc(NC2=C(Cl)C(=O)c3ccccc3C2=O)cc1 [Compound 7]
(b) CCCCNC1=C(Cl)C(=O)c2ccccc2C1=O [Compound 2]
Input line: Hi, I'm comparing a with b and wondering which one has the bigger number for IC50. Any idea? Mark your selection by writing its label.
Output line: b
(b: 8.7 µM, a: 5.3 µM)

====

system: aromatase; test: QSAR (MLR) prediction of aromatase inhibitory activity; conditions: pairs: 6c > 6, 7c > 7, 7a > 7, 6 > 6a, 7b > 7a; pIC50 based
measure.name: folds more potent than the compared analogue (folds)

CC(=O)c1cccc(N(C)C2=C(Cl)C(=O)c3ccccc3C2=O)c1 = 1.67

(A) O=C1C(Cl)=C(Nc2ccc(C(=O)C(F)(F)F)cc2)C(=O)c2ccccc21
(B) CC(=O)c1ccc(N(C)C2=C(Cl)C(=O)c3ccccc3C2=O)cc1
Input line: Of A and B , which shows the smaller folds more potent than the compared analogue value? Response format: the label of the selected entry.
Output line: A
(A: 1.47 folds, B: 2.73 folds)
